Attribution: paper PMC11052913

# experiment.description: Solubility of REG in supercritical CO2, static isobaric-isothermal method with UV-Vis quantification
# Assay type: physicochemical
# details: 308 K, 120 bar, CO2 density 769 kg/m^3
assay.metric: S (equilibrium solubility) in ScCO2 (µg/mL)

compound | unit.of.measurement | reported.value
CNC(=O)c1cc(Oc2ccc(NC(=O)Nc3ccc(Cl)c(C(F)(F)F)c3)c(F)c2)ccn1 [Regorafenib monohydrate] | µg/mL | 10.6

* * *

# experiment.description: Solubility of REG in supercritical CO2, static isobaric-isothermal method with UV-Vis quantification
# Format: physicochemical
# details: 328 K, 150 bar, CO2 density 656 kg/m^3
assay.metric: S (equilibrium solubility) in ScCO2 (µg/mL)

compound | assay.metric | reported.value
CNC(=O)c1cc(Oc2ccc(NC(=O)Nc3ccc(Cl)c(C(F)(F)F)c3)c(F)c2)ccn1 [Regorafenib monohydrate] | S (equilibrium solubility) in ScCO2 | 7

* * *

# experiment.description: Solubility of REG in supercritical CO2, static isobaric-isothermal method with UV-Vis quantification
# Assay type: physicochemical
# details: 308 K, 210 bar, CO2 density 875 kg/m^3

compound | S (equilibrium solubility) in ScCO2 / µg/mL
CNC(=O)c1cc(Oc2ccc(NC(=O)Nc3ccc(Cl)c(C(F)(F)F)c3)c(F)c2)ccn1 [Regorafenib monohydrate] | 22.6

* * *

# experiment.description: Solubility of REG in supercritical CO2, static isobaric-isothermal method with UV-Vis quantification
# Assay type: physicochemical
# details: 338 K, 210 bar, CO2 density 710 kg/m^3

compound | unit.of.measurement | S (equilibrium solubility) in ScCO2
CNC(=O)c1cc(Oc2ccc(NC(=O)Nc3ccc(Cl)c(C(F)(F)F)c3)c(F)c2)ccn1 [Regorafenib monohydrate] | µg/mL | 34.6

* * *

# experiment.description: Solubility of REG in supercritical CO2, static isobaric-isothermal method with UV-Vis quantification
# Assay type: physicochemical
# details: 338 K, 120 bar, CO2 density 388 kg/m^3

compound | unit.of.measurement | S (equilibrium solubility) in ScCO2
CNC(=O)c1cc(Oc2ccc(NC(=O)Nc3ccc(Cl)c(C(F)(F)F)c3)c(F)c2)ccn1 [Regorafenib monohydrate] | µg/mL | 1.3

* * *

# experiment.description: Solubility of REG in supercritical CO2, static isobaric-isothermal method with UV-Vis quantification
# Format: physicochemical
# details: 308 K, 270 bar, CO2 density 914 kg/m^3

compound | unit.of.measurement | S (equilibrium solubility) in ScCO2
CNC(=O)c1cc(Oc2ccc(NC(=O)Nc3ccc(Cl)c(C(F)(F)F)c3)c(F)c2)ccn1 [Regorafenib monohydrate] | µg/mL | 31.5

* * *

# experiment.description: Solubility of REG in supercritical CO2, static isobaric-isothermal method with UV-Vis quantification
# Assay type: physicochemical
# details: 308 K, 180 bar, CO2 density 849 kg/m^3

molecule | S (equilibrium solubility) in ScCO2 (µg/mL)
CNC(=O)c1cc(Oc2ccc(NC(=O)Nc3ccc(Cl)c(C(F)(F)F)c3)c(F)c2)ccn1 [Regorafenib monohydrate] | 18

* * *

# experiment.description: Solubility of REG in supercritical CO2, static isobaric-isothermal method with UV-Vis quantification
# Assay type: physicochemical
# details: 318 K, 120 bar, CO2 density 661 kg/m^3
assay.metric: S (equilibrium solubility) in ScCO2 (µg/mL)

compound | reported.value
CNC(=O)c1cc(Oc2ccc(NC(=O)Nc3ccc(Cl)c(C(F)(F)F)c3)c(F)c2)ccn1 [Regorafenib monohydrate] | 7.2
